# target_or_system: KCNQ2/3 channels (Homo sapiens, UniProt O43525+O43526)
# assay_summary: Fluorescence assay using a voltage-sensitive dye (fluorimetry)
# protocol_conditions: CHO-K1 cells expressing KCNQ2/3 channels
measured_metric: EC50 (nM)

Some compounds with known EC50 results, for comparison:
CCSc1nc2c(OC)cccc2c(C)c1C(=O)NCc1ccc(F)cc1 = 1960
CCSc1nc2cc(C(F)(F)F)ccc2c(C)c1C(=O)NCc1nccs1 = 587
Cc1c(C(=O)NCc2cccc(F)c2)c(SC2CCCCC2)nc2cc(C(F)(F)F)ccc12 = 64

1 = O=C(NCc1cccs1)c1cc2ccccc2nc1SCCSc1ccccc1
2 = CCSc1nc2ccc(C(F)(F)F)cc2cc1C(=O)NCc1cccs1
3 = O=C(NCc1cccs1)c1cc2ccccc2nc1SCCCC1CCCCC1
Problem: Hey, quick one: sort these by EC50, largest value first please. # list labels per requested ordering
Solution: 3, 2, 1
(3: 1930 nM, 2: 412 nM, 1: 119 nM)

P = CSc1nc2cc(C(F)(F)F)ccc2c(C)c1C(=O)NCc1cccc(F)c1
Q = CCSc1nc2ccccc2cc1C(=O)NCc1cccs1
Problem: Compare reported EC50 values for P and Q . Which is lower? Answer by stating the label of the chosen item.
Solution: P

* * *

# target_or_system: KCNQ2/3 channels (Homo sapiens, UniProt O43525+O43526)
# Construct: expressed in transfected cells; host or cells: CHO-K1 cells
# assay_summary: Fluorescence assay using a voltage-sensitive dye (fluorimetry)
# Type: cell-based
# protocol_conditions: at 1 μM; 50 μM retigabine = 100%; CHO-K1 cells expressing KCNQ2/3; read-out: Fluorimetry % efficacy at 1 μM (50 μM retigabine = 100%)
# Description: […] CHO-K1 cells expressing KCNQ2/3 channels are cultivated adherently at 37° C., 5% CO2 and 95% humidity in cell culture bottles (e.g. 80 cm^2 TC flasks, Nunc) with DMEM-high glucose (Sigma Aldrich, D7777) including 10% FCS (PAN Biotech, e.g. 3302-P270521) or alternatively MEM Alpha Medium (1×, liquid, Invitrogen, #22571), 10% foetal calf serum (FCS) (Invitrogen, #10270-106, heat-inactivated) and the necessary selection antibiotics. […]
measured_metric: Emax at 1 µM (%)

CCSc1nc2cc(C(F)(F)F)ccc2c(C)c1C(=O)NCc1cccc(C)c1 [compound 82] = 108
CCSc1nc2cc(C(F)(F)F)ccc2c(C)c1C(=O)NCc1ccccc1O [compound 112] = 211
Cc1c(C(=O)NCc2cccc(F)c2)c(SC2CCCC2)nc2cc(C(F)(F)F)ccc12 [compound 48] = 133
CCSc1nc2cc(C(F)(F)F)ccc2c(C)c1C(=O)NCc1ccc(F)cc1 [compound 77] = 137
CCSc1nc2c(O)cccc2c(C)c1C(=O)NCc1cccc(F)c1 [compound 140] = 101

I = CCSc1nc2cc(C(F)(F)F)ccc2c(C)c1C(=O)NCc1ccccn1 [compound 41]
II = CCSc1nc2cc(C(F)(F)F)ccc2c(C)c1C(=O)NCCC1CCCC1 [compound 53]
Problem: Compare reported Emax at 1 µM values for I and II . Which is lower? Answer by stating the label of the chosen item.
Solution: II
(II: 73%, I: 121%)

P = CCSc1nc2ccc(C)cc2c(C)c1C(=O)NCc1cccc(F)c1 [compound 99]
Q = CCSc1nc2cc(F)ccc2c(C)c1C(=O)NCc1ccc(F)cc1 [compound 106]
Problem: // max by Emax at 1 µM over [ P , Q ] Answer by stating the label of the chosen item.
Solution: Q
(Q: 143%, P: 90%)

a = CSc1nc2cc(C(F)(F)F)ccc2c(C)c1C(=O)NCc1cccc(F)c1 [compound 114]
b = COC(=O)CCSc1nc2ccccc2cc1C(=O)NCc1cccs1 [compound 2]
c = CCSc1nc2ccc(F)cc2c(C)c1C(=O)NCc1ccc(F)cc1 [compound 117]
Problem: Arrange these 3 compounds in increasing order of Emax at 1 µM. # list labels per requested ordering
Solution: b, c, a
